Recorded inhibition at 1 µg/mL values for a group of molecules are listed next.
Tested on: cancer cell W-2K-11
Experiment: Growth inhibition of cancer cell W-2K-11 (percent inhibition of cell multiplication, Table 2)
Assay type: cell-based, mouse
Conditions: Mus musculus, 48 h, read-out: Percent inhibition (%)
reportedProperty: inhibition at 1 µg/mL (%)

[[record]]
molecule = "COC1/C=C\\C=C(/C)C(=O)NC2=CC(=O)C(NCC(C)C)=C(CC(C)CC(OC)C(O)C(C)/C=C(\\C)C1OC(N)=O)C2=O (centres unmarked)"
datavalue = 90

[[record]]
molecule = "CNC(=O)OC1C(C)=CC(C)C(O)C(OC)CC(C)CC2=C(OC)C(=O)C=C(N=C(OC)C(C)=CC=CC1OC)C2=O (centres unmarked)"
datavalue = 94

[[record]]
molecule = "COC1/C=C\\C=C(/C)C(=O)NC2=CC(=O)C(N3CC3)=C(CC(C)CC(OC)C(O)C(C)/C=C(\\C)C1OC(N)=O)C2=O (centres unmarked)"
datavalue = 97

[[record]]
molecule = "CCCCCNC1=C2CC(C)CC(OC)C(O)C(C)/C=C(\\C)C(OC(N)=O)C(OC)/C=C\\C=C(/C)C(=O)NC(=CC1=O)C2=O (centres unmarked)"
datavalue = 90

[[record]]
molecule = "COC1/C=C\\C=C(/C)C(=O)NC2=CC(=O)C(NCCCl)=C(CC(C)CC(OC)C(O)C(C)/C=C(\\C)C1OC(N)=O)C2=O (centres unmarked)"
datavalue = 98


---

Assay: Acute toxicity, LD50 to mouse by intraperitoneal injection (Table 3)
Conditions: in vivo, ip
Recorded LD50 values for a group of compounds are listed next.
reportedProperty: LD50 (mg/kg)

[[record]]
compound = "COC1=C2CC(C)CC(OC)C(O)C(C)C3OC3(C)C(OC(N)=O)C(OC)C=CC=C(C)C(=O)NC(=CC1=O)C2=O (centres unmarked)"
qualifyingsign = "="
datavalue = 240

[[record]]
compound = "COC1=C2C[C@@H](C)C[C@H](OC)[C@H](O)[C@@H](C)/C=C(\\C)[C@H](OC(N)=O)[C@@H](OC)/C=C\\C=C(/C)C(=O)NC(=CC1=O)C2=O"
qualifyingsign = "="
datavalue = 15

[[record]]
compound = "COC1=C2CC(C)CC(OC)C(O)C(C)C=C(C)C(OC(N)=O)C(OC)C=CC=C(C)C(=O)NC(=C(N(C)C)C1=O)C2=O (centres unmarked)"
qualifyingsign = ">"
datavalue = 240

[[record]]
compound = "CCNC1=C2CC(C)CC(OC)C(O)C(C)/C=C(\\C)C(OC(N)=O)C(OC)/C=C\\C=C(/C)C(=O)NC(=CC1=O)C2=O (centres unmarked)"
qualifyingsign = "="
datavalue = 120

[[record]]
compound = "COC1=C2CC(C)CC(OC)C(O)C(C)C=C(C)C(OC(N)=O)C(OC)C=CC=C(C)C(=O)N(C)C(=CC1=O)C2=O (centres unmarked)"
qualifyingsign = "="
datavalue = 120

